reported metric: melting point

Please review the entries below; each comes with its answer.
CCOc1ccc(-c2c(-c3ccc(S(C)(=O)=O)cc3Cl)ssc2=S)cc1 [Example 70] = 190 to 191 °C
CS(=O)(=O)c1ccc(-c2ssc(=S)c2-c2cccc(C(F)(F)F)c2)cc1 [Example 55] = 188 to 189 °C
COc1ccc(-c2c(-c3ccc(F)c(F)c3)ssc2=S)cc1 [Example 75] = 143 to 145 °C

Query: Look up and report measured melting point for this entry: COc1ccc(-c2c(-c3ccc(S(C)(=O)=O)cc3)ssc2=S)cc1 [Example 43]
Reply: 220 to 222 °C

Query: Identify melting point associated with the compound CC(=O)Oc1ccc(-c2c(-c3ccc(S(C)(=O)=O)cc3)ssc2=S)cc1 [Example 69]
Reply: 241 to 243 °C

Query: Give melting point for the following compound: CS(=O)(=O)c1ccc(-c2[nH][nH]c(=S)c2-c2ccc(Cl)c(Cl)c2)cc1 [Example 81]
Reply: 192 to 193 °C

* * *

The following compounds are listed with their measured inhibition at 0.03 µM values.
molecular target: COX-2 (Mus musculus); construct: host or cells: RAW 264.7 cells, pre-treated with aspirin, then induced with interferon and LPS; assay: Assay for the COX-2 inhibitory activity using Raw 264.7 cell line (PGE2 inhibition); type: cell-based; settings: RAW264.7; test compound 30 nM; RAW 264.7 cells; aspirin pre-treated, interferon + LPS 18 hours; PGE2 by EIA; read-out: Cyclooxygenase (COX) Inhibition (%) COX-2 (30 nM)
// return the numeric value with its unit appended

Reference set, count: 4
CS(=O)(=O)c1ccc(-c2ssc(=S)c2-c2ccccc2)cc1 [Example 42] = 20.1%
CS(=O)(=O)c1ccc(-c2ssc(=S)c2-c2ccc(F)cc2)cc1 [Example 50] = 19.6%
CS(=O)(=O)c1ccc(-c2ssc(=S)c2-c2ccc(F)c(F)c2)cc1 [Example 64] = 19.8%
CS(=O)(=O)c1ccc(-c2ssc(=S)c2-c2ccccc2Br)cc1 [Example 61] = 20.1%

Query: Give inhibition at 0.03 µM only, for COc1ccc(-c2c(-c3ccc(F)c(F)c3)ssc2=S)cc1 [Example 75] , using COX-2 (Mus musculus) data.
Reply: 19.6%

Query: Report its inhibition at 0.03 µM with COX-2 (Mus musculus) as the test system: CS(=O)(=O)c1ccc(-c2ssc(=S)c2-c2cccc(C(F)(F)F)c2)cc1 [Example 55]
Reply: 20.2%

* * *

# inhibition at 0.03 µM values compiled below
biological target: COX-2 (Mus musculus); construct: host or cells: RAW 264.7 cells, pre-treated with aspirin, then induced with interferon and LPS; assay: Assay for the COX-2 inhibitory activity using Raw 264.7 cell line (PGE2 inhibition); format: cell-based; settings: RAW264.7; test compound 30 nM; RAW 264.7 cells; aspirin pre-treated, interferon + LPS 18 hours; PGE2 by EIA; read-out: Cyclooxygenase (COX) Inhibition (%) COX-2 (30 nM)
Write the number in % without appending the unit.

Take a look at these entries with their results.
CS(=O)(=O)c1ccc(-c2ssc(=S)c2-c2ccccc2Cl)cc1 = 21.1
CS(=O)(=O)c1ccc(-c2ssc(=S)c2-c2ccccn2)cc1 = 19.5
CS(=O)(=O)c1ccc(-c2ssc(=S)c2-c2ccccc2[N+](=O)[O-])cc1 = 26.3
CS(=O)(=O)c1ccc(-c2ssc(=S)c2-c2ccc(F)cc2Cl)cc1 = 19.7

Would you kindly look at the next entry?
Query: Provide COX-2 (Mus musculus) inhibition at 0.03 µM reading for CC(=O)Oc1ccc(-c2c(-c3ccc(F)c(F)c3)ssc2=S)cc1 .
Reply: 20.3

* * *

molecular target: COX-2 (Mus musculus, UniProt Q05769); construct: host or cells: RAW 264.7 cells, pre-treated with aspirin, then induced with interferon and LPS; test: Assay for the COX-2 inhibitory activity using Raw 264.7 cell line (PGE2 inhibition); type: cell-based; conditions: RAW264.7; test compound 30 nM; RAW 264.7 cells; aspirin pre-treated, interferon + LPS 18 hours; PGE2 by EIA; read-out: Cyclooxygenase (COX) Inhibition (%) COX-2 (30 nM)
Sequence (Q05769 18-604): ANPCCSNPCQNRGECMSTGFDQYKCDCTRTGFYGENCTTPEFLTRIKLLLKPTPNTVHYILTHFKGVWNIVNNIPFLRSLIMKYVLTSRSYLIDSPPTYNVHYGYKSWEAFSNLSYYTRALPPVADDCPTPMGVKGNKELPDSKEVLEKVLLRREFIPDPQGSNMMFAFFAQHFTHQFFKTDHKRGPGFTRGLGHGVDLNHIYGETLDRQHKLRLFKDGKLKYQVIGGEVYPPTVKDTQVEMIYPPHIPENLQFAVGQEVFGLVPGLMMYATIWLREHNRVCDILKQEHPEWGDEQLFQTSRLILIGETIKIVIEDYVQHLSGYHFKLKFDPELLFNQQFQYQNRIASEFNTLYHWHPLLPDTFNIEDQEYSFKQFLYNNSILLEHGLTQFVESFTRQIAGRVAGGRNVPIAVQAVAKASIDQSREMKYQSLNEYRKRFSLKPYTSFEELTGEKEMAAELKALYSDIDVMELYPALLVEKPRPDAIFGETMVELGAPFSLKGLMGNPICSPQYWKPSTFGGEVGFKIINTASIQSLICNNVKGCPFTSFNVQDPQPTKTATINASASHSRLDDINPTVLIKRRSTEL
reported metric: inhibition at 0.03 µM (%)
Reply numerically in %, unit not repeated.

Examples with their reported inhibition at 0.03 µM follow.
CS(=O)(=O)c1ccc(-c2ssc(=S)c2-c2ccc3ccccc3c2)cc1 = 20.1
CS(=O)(=O)c1ccc(-c2ssc(=S)c2-c2ccc(Cl)cc2Cl)cc1 = 20.1

Query: Output measured inhibition at 0.03 µM for this item: COc1ccc(-c2c(-c3ccc(S(C)(=O)=O)cc3Cl)ssc2=S)cc1
Reply: 20.1

* * *

Entries and their melting point values follow.

CC(C)Oc1ccc(-c2c(-c3ccc(S(C)(=O)=O)cc3)ssc2=S)cc1 [Example 67] = 179 to 180 °C

Query: Return melting point (reported value) for this compound: Cc1cc(C)cc(-c2c(-c3ccc(S(C)(=O)=O)cc3)ssc2=S)c1 [Example 52]
Reply: 164 to 165 °C

Query: Identify measured melting point associated with COc1ccc(-c2c(-c3ccc(S(C)(=O)=O)cc3)ssc2=S)cc1OC [Example 60]
Reply: 182 to 183 °C
